Test system: Jurkat
measurementNotes: Cell viability CellTiter-Blue assay, Jurkat (Bcl-2-negative)
Assay type: cell-based, human
condition: Homo sapiens, Jurkat; growth inhibition, Bcl-2-negative cell line, CellTiter-Blue, 24 h; mean ± SEM
pIC50: −log10 of the molar value.
propertyMeasured: pIC50

>>> measvalue("Fc1cccc(-c2nn3c(-c4c[nH]c5ccccc45)nnc3s2)c1")
4.19
>>> measvalue("O=[N+]([O-])c1cccc(-c2nn3c(-c4c[nH]c5ccccc45)nnc3s2)c1")
4.49
>>> measvalue("Brc1cccc(-c2nn3c(-c4c[nH]c5ccccc45)nnc3s2)c1")
4.34
>>> measvalue("Clc1cccc(-c2nn3c(-c4c[nH]c5ccccc45)nnc3s2)c1")
4.69
>>> measvalue("Cc1cc2c(C(C)C)c(O)c(O)c(C=O)c2c(O)c1-c1c(C)cc2c(C(C)C)c(O)c(O)c(C=O)c2c1O [Gossypol, gossypol, reference compound]")
4.74
>>> measvalue("Ic1ccc(-c2nn3c(-c4c[nH]c5ccccc45)nnc3s2)cc1")
5.09

The reported measurements were obtained from paper PMC8621373.
